Test system: 883617-216-R-J1-PDC tumor spheroids, viability;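 further: spheroids exposed to agents for 7 days before the viability read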
Assay: Anticancer human tumor 883617-216-R-J1-PDC patient-derived bladder carcinoma cell line growth inhibition [PI3K]
Settings: second compound 0.00316 µM; first compound 10 µM; hits give low values; spheroids with HUVEC and MSC
Categorize each record by its viability, T/C using lower: < 10%; middle: ≥ 10% and < 60%; upper: ≥ 60%

molecule	assigned category
CC(C)NCC(C(=O)N1CCN(c2ncnc3c2C(C)CC3O)CC1)c1ccc(Cl)cc1 (configuration not stated) + CC(Nc1ccc2c(c1)OCCn1cc(N3C(=O)OCC3C(F)F)nc1-2)C(N)=O	lower
CCCS(=O)(=O)Nc1ccc(F)c(C(=O)c2c[nH]c3ncc(-c4ccc(Cl)cc4)cc23)c1F + CC(Nc1ccc2c(c1)OCCn1cc(N3C(=O)OCC3C(F)F)nc1-2)C(N)=O	lower
Cn1ncc(Cl)c1-c1cc(C(=O)NC(CN)Cc2cccc(F)c2)sc1Cl (configuration not stated) + CC(Nc1ccc2c(c1)OCCn1cc(N3C(=O)OCC3C(F)F)nc1-2)C(N)=O	upper
CNC(=O)c1ccc(N2C(=S)N(c3ccc(C#N)c(C(F)(F)F)c3)C(=O)C2(C)C)cc1F + COc1c(OCCCN2CCOCC2)ccc2c3n(c(=NC(=O)c4cnc(N)nc4)nc12)CCN3	upper
CCCS(=O)(=O)Nc1ccc(F)c(C(=O)c2c[nH]c3ncc(-c4ccc(Cl)cc4)cc23)c1F + COc1c(OCCCN2CCOCC2)ccc2c3n(c(=NC(=O)c4cnc(N)nc4)nc12)CCN3	middle
CNC(=O)c1ccc(N2C(=S)N(c3ccc(C#N)c(C(F)(F)F)c3)C(=O)C2(C)C)cc1F + CC(Nc1ccc2c(c1)OCCn1cc(N3C(=O)OCC3C(F)F)nc1-2)C(N)=O	upper
Cn1nccc1Nc1nccc(-c2ccn(C(CO)c3ccc(Cl)c(F)c3)c(=O)c2)n1 (configuration not stated) + COc1c(OCCCN2CCOCC2)ccc2c3n(c(=NC(=O)c4cnc(N)nc4)nc12)CCN3	middle
CC(Cn1ccc(-c2ccc(C#N)c(Cl)c2)n1)NC(=O)c1cc(C(C)O)[nH]n1 (configuration not stated) + COc1c(OCCCN2CCOCC2)ccc2c3n(c(=NC(=O)c4cnc(N)nc4)nc12)CCN3	upper
CC(C)NCC(C(=O)N1CCN(c2ncnc3c2C(C)CC3O)CC1)c1ccc(Cl)cc1 (configuration not stated) + COc1c(OCCCN2CCOCC2)ccc2c3n(c(=NC(=O)c4cnc(N)nc4)nc12)CCN3	lower
C=CC(=O)N1CCN(c2nc(=O)n(-c3c(C)ccnc3C(C)C)c3nc(-c4c(O)cccc4F)c(F)cc23)C(C)C1 (configuration not stated) + CC(Nc1ccc2c(c1)OCCn1cc(N3C(=O)OCC3C(F)F)nc1-2)C(N)=O	middle
CC1(C)CCC(CN2CCN(c3ccc(C(=O)NS(=O)(=O)c4ccc(NCC5CCOCC5)c([N+](=O)[O-])c4)c(Oc4cnc5[nH]ccc5c4)c3)CC2)=C(c2ccc(Cl)cc2)C1 + COc1c(OCCCN2CCOCC2)ccc2c3n(c(=NC(=O)c4cnc(N)nc4)nc12)CCN3	upper
CC(Cn1ccc(-c2ccc(C#N)c(Cl)c2)n1)NC(=O)c1cc(C(C)O)[nH]n1 (configuration not stated) + CC(Nc1ccc2c(c1)OCCn1cc(N3C(=O)OCC3C(F)F)nc1-2)C(N)=O	upper
CC1(C)CCC(Nc2ncc(C(F)(F)F)c(-c3c[nH]c4c(P(C)(C)=O)c(C#N)ccc34)n2)CN1 (configuration not stated) + COc1c(OCCCN2CCOCC2)ccc2c3n(c(=NC(=O)c4cnc(N)nc4)nc12)CCN3	lower
CC1(C)CCC(CN2CCN(c3ccc(C(=O)NS(=O)(=O)c4ccc(NCC5CCOCC5)c([N+](=O)[O-])c4)c(Oc4cnc5[nH]ccc5c4)c3)CC2)=C(c2ccc(Cl)cc2)C1 + CC(Nc1ccc2c(c1)OCCn1cc(N3C(=O)OCC3C(F)F)nc1-2)C(N)=O	lower
Cn1nccc1Nc1nccc(-c2ccn(C(CO)c3ccc(Cl)c(F)c3)c(=O)c2)n1 (configuration not stated) + CC(Nc1ccc2c(c1)OCCn1cc(N3C(=O)OCC3C(F)F)nc1-2)C(N)=O	middle
C#Cc1c(F)ccc2cc(O)cc(-c3ncc4c(N5CC6CCC(C5)N6)nc(OCC56CCCN5CC(F)C6)nc4c3F)c12 (configuration not stated) + COc1c(OCCCN2CCOCC2)ccc2c3n(c(=NC(=O)c4cnc(N)nc4)nc12)CCN3	middle
CC1(C)CCC(Nc2ncc(C(F)(F)F)c(-c3c[nH]c4c(P(C)(C)=O)c(C#N)ccc34)n2)CN1 (configuration not stated) + CC(Nc1ccc2c(c1)OCCn1cc(N3C(=O)OCC3C(F)F)nc1-2)C(N)=O	lower
Cn1ncc(Cl)c1-c1cc(C(=O)NC(CN)Cc2cccc(F)c2)sc1Cl (configuration not stated) + COc1c(OCCCN2CCOCC2)ccc2c3n(c(=NC(=O)c4cnc(N)nc4)nc12)CCN3	lower
C[C@@H](NC(=O)c1ncnc(N)c1Cl)c1ncc(C(=O)Nc2cc(C(F)(F)F)c(Cl)cn2)s1 + CC(Nc1ccc2c(c1)OCCn1cc(N3C(=O)OCC3C(F)F)nc1-2)C(N)=O	upper
C#Cc1c(F)ccc2cc(O)cc(-c3ncc4c(N5CC6CCC(C5)N6)nc(OCC56CCCN5CC(F)C6)nc4c3F)c12 (configuration not stated) + CC(Nc1ccc2c(c1)OCCn1cc(N3C(=O)OCC3C(F)F)nc1-2)C(N)=O	middle
C=CC(=O)N1CCN(c2nc(=O)n(-c3c(C)ccnc3C(C)C)c3nc(-c4c(O)cccc4F)c(F)cc23)C(C)C1 (configuration not stated) + COc1c(OCCCN2CCOCC2)ccc2c3n(c(=NC(=O)c4cnc(N)nc4)nc12)CCN3	middle
